Test system: Clostridium sporogenes DSM 1664
procedure summary: fold change of Tryptamine concentration vs plate DMSO controls (fold change (ratio)); higher = more amine produced, active = hit call of the paper (significant change in both replicates, either direction);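 for the amine columns active = adjusted P below 0.05 in both replicates with a change the same way and a mean fold change under 0.8 or over 1.25; inactive = the rest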
experimental conditions: incubation time: 27 h, anaerobic, 37 °C
Structures can show the parent of a compound that is named as a salt.
Possible outcomes: active, inactive

INSERT INTO results (compound, label_class) VALUES
  ('C=C1c2c(Cl)ccc(O)c2C(O)=C2C(=O)[C@]3(O)C(O)=C(C(N)=O)C(=O)[C@@H](N(C)C)[C@@H]3[C@@H](O)[C@H]12.O=C(O)c1cc(S(=O)(=O)O)ccc1O [Meclocycline sulfosalicylate] (20 µM)', 'active'),
  ('CC(=O)OCC(=O)[C@@]1(O)CC[C@H]2[C@@H]3CCC4=CC(=O)CC[C@]4(C)[C@H]3[C@@H](O)C[C@@]21C [Cortisol acetate] (20 µM)', 'inactive'),
  ('CN(Cc1ccc(C(C)(C)C)cc1)Cc1cccc2ccccc12 [Butenafine hydrochloride] (20 µM)', 'inactive'),
  ('N/C(=N\C(=O)c1nc(Cl)c(N)nc1N)NCc1ccccc1 [Benzamil hydrochloride] (20 µM)', 'inactive'),
  ('CCCCNC(=O)NS(=O)(=O)c1ccc(C)cc1 [Tolbutamide] (20 µM)', 'inactive'),
  ('CCCNC(C)C(=O)Nc1c(C)csc1C(=O)OC (configuration not stated) [Articaine hydrochloride] (20 µM)', 'inactive'),
  ('CNC(=C[N+](=O)[O-])NCCSCc1ccc(CN(C)C)o1 [Ranitidine hydrochloride] (20 µM)', 'inactive');

###

Test system: Ruminococcus gnavus DSM 108212
procedure summary: growth (OD595) fold change vs plate DMSO controls (fold change (ratio)); higher = more growth
experimental conditions: incubation time: 27 h, anaerobic, 37 °C
Structures can show the parent of a compound that is named as a salt.
observation type: growth

INSERT INTO measurements (molecule, numeric_value) VALUES
  ('Cc1c(O)c(=O)n(-c2ccccc2)n1C [Antipyrine, 4-hydroxy] (20 µM)', 0.689),
  ('O=C(NCc1ncc(C(F)(F)F)cc1Cl)c1c(Cl)cccc1Cl (20 µM)', 1.03),
  ('C[C@H]1O[C@@H](O[C@H]2[C@@H](O)C[C@H](O[C@H]3[C@@H](O)C[C@H](O[C@H]4CC[C@@]5(C)[C@H](CC[C@@H]6[C@@H]5C[C@@H](O)[C@]5(C)[C@@H](C7=CC(=O)OC7)CC[C@]65O)C4)O[C@@H]3C)O[C@@H]2C)C[C@H](O)[C@@H]1O [Digoxin] (20 µM)', 0.945),
  ('CC[N+](CC)(CC)CCC(O)(c1ccccc1)C1CCCCC1 (centres undefined) [Tridihexethyl chloride] (20 µM)', 1.16),
  ('CSc1nc2cc(Cl)c(Oc3cccc(Cl)c3Cl)cc2[nH]1 [Triclabendazole] (20 µM)', 0.767),
  ('CSc1ccc2c(c1)N(CCC1CCCCN1C)c1ccccc1S2 (centres undefined) [Thioridazine hydrochloride] (20 µM)', 1.25),
  ('CCCCOc1cc(C(=O)NCCN(CC)CC)c2ccccc2n1 [Dibucaine] (20 µM)', 1.02),
  ('COC(=O)C1=C(C)NC(C)=C(C(=O)OC(C)C)C1c1cccc2nonc12 (centres undefined) [Isradipine] (20 µM)', 1.22),
  ('Cc1cc(NS(=O)(=O)c2ccc(N)cc2)nc(C)n1 [Sulfisomidine] (20 µM)', 1.03);

###

# growth listing for each entry below
Test system: Ruminococcus gnavus DSM 108212
procedure summary: growth (OD595) fold change vs plate DMSO controls (fold change (ratio)); higher = more growth
experimental conditions: incubation time: 27 h, anaerobic, 37 °C
Counter-ions that a name gives are not always drawn.
observation type: growth

INSERT INTO assay_data (molecule, observation_type, numeric_value) VALUES
  ('CC(C)c1cc2c(cc1S(=O)(=O)O)[C@@]1(C)CCC[C@@](C)(C(=O)O)[C@@H]1CC2 [Ecabet sodium] (20 µM)', 'growth', 0.982),
  ('C=CC1=C(C(=O)O)N2C(=O)[C@@H](NC(=O)/C(=N\O)c3csc(N)n3)[C@H]2SC1 [Cefdinir] (20 µM)', 'growth', 0),
  ('Cc1cccc(C)c1NC(=O)C(C)N (stereo unspecified) [Tocainide hydrochloride] (20 µM)', 'growth', 1.06),
  ('Cc1cn(-c2cc(NC(=O)c3ccc(C)c(Nc4nccc(-c5cccnc5)n4)c3)cc(C(F)(F)F)c2)cn1 [Nilotinib] (20 µM)', 'growth', 1.02),
  ('CC1(C)[C@@H](O[C@H]2O[C@H](C(=O)O)[C@@H](O)[C@H](O)[C@H]2O[C@@H]2O[C@H](C(=O)O)[C@@H](O)[C@H](O)[C@H]2O)CC[C@]2(C)[C@H]3C(=O)C=C4[C@@H]5C[C@@](C)(C(=O)O)CC[C@]5(C)CC[C@@]4(C)[C@]3(C)CC[C@@H]12 [Glycyrrhizic acid] (50 µM)', 'growth', 1.07),
  ('Cc1cc(C#N)cc(C)c1Oc1nc(Nc2ccc(C#N)cc2)nc(N)c1Br [Etravirine] (20 µM)', 'growth', 1.03);

###

Tested on: Escherichia coli IAI1
procedure summary: fold change of Cadaverine concentration vs plate DMSO controls (fold change (ratio)); higher = more amine produced, active = hit call of the paper (significant change in both replicates, either direction);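 for the amine columns active = adjusted P below 0.05 in both replicates with a change the same way and a mean fold change under 0.8 or over 1.25; inactive = the rest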
experimental conditions: incubation time: 27 h, anaerobic, 37 °C
Structures can show the parent of a compound that is named as a salt.
Labels: active, inactive

INSERT INTO measurements (compound, label_class) VALUES
  ('CC(Oc1ccccc1)C(=O)N[C@@H]1C(=O)N2[C@@H]1SC(C)(C)[C@@H]2C(=O)O (stereo not given in full) [Phenethicillin potassium salt] (20 µM)', 'inactive'),
  ('Cc1nc(C)c(Cl)c(O)c1Cl [Clopidol] (20 µM)', 'inactive'),
  ('CN1CCN(CC(=O)N2c3ccccc3C(=O)Nc3cccnc32)CC1 [Pirenzepine dihydrochloride] (20 µM)', 'inactive'),
  ('CCCCNc1c(C(=O)OCC)c(C)nc2c1cnn2CC [Tracazolate hydrochloride] (20 µM)', 'inactive'),
  ('O=C(CCCN1CC=C(n2c(=O)[nH]c3ccccc32)CC1)c1ccc(F)cc1 [Droperidol] (20 µM)', 'inactive'),
  ('O=C(N/N=C/c1ccc([N+](=O)[O-])o1)c1ccc(O)cc1 [Nifuroxazide] (20 µM)', 'active'),
  ('CCOC(N)=O [Urethane] (20 µM)', 'inactive'),
  ('CC(=O)Oc1ccc(C(=C2CCCCC2)c2ccc(OC(C)=O)cc2)cc1 [Cyclofenil] (20 µM)', 'inactive'),
  ('CC[N+](CC)(CC)CCOc1cccc(OCC[N+](CC)(CC)CC)c1OCC[N+](CC)(CC)CC [Gallamine triethiodide] (20 µM)', 'inactive'),
  ('CS(=O)(=O)Nc1ccc([N+](=O)[O-])cc1Oc1ccccc1 [Nimesulide] (20 µM)', 'inactive'),
  ('Clc1ccc(CO/N=C(\Cn2ccnc2)c2ccc(Cl)cc2Cl)c(Cl)c1 [Oxiconazole nitrate] (20 µM)', 'inactive'),
  ('C#C[C@]1(O)CC[C@H]2[C@@H]3CCC4=CC(=O)CC[C@@H]4[C@H]3CC[C@@]21CC [(D-) Norgestrel] (20 µM)', 'inactive'),
  ('O=C1OC(CN2CCOCC2)CN1/N=C/c1ccc([N+](=O)[O-])o1 (stereo not given) [Furaltadone hydrochloride] (20 µM)', 'active'),
  ('O=[N+]([O-])c1ccc2c(c1)Cc1ccccc1-2 [2-Nitrofluorene] (20 µM)', 'inactive'),
  ('CCCCc1nc(Cl)c(CO)n1Cc1ccc(-c2ccccc2-c2nnn[nH]2)cc1 [Losartan] (20 µM)', 'inactive'),
  ('CN(C)CCCOc1nn(Cc2ccccc2)c2ccccc12 [Benzydamine hydrochloride] (20 µM)', 'inactive'),
  ('CCN(CC)CCCC(C)Nc1c2ccc(Cl)cc2nc2ccc(OC)cc12 (stereo not given) [Quinacrine dihydrochloride hydrate] (20 µM)', 'inactive'),
  ('CC(=O)[C@H]1CC[C@H]2[C@@H]3CCC4=CC(=O)CC[C@]4(C)[C@H]3CC[C@]12C [Progesterone] (20 µM)', 'inactive'),
  ('Cn1c(=O)cc(N2CCC[C@@H](N)C2)n(Cc2ccccc2C#N)c1=O [Alogliptin benzoate] (20 µM)', 'inactive'),
  ('Nc1nc(N)nc(-c2cc(Cl)ccc2Cl)n1 [Irsogladine maleate] (20 µM)', 'inactive'),
  ('CN1CCCC(CC2c3ccccc3Sc3ccccc32)C1 (stereo not given) [Metixene hydrochloride] (20 µM)', 'inactive'),
  ('CC(C)c1ccc2oc3nc(N)c(C(=O)O)cc3c(=O)c2c1 [Amlexanox] (20 µM)', 'inactive'),
  ('CN(C)CCC(c1ccc(Cl)cc1)c1ccccn1 (stereo not given) [Chlorpheniramine maleate] (20 µM)', 'active'),
  ('Cc1ccnc(NS(=O)(=O)c2ccc(N)cc2)n1 [Sulfamerazine] (20 µM)', 'inactive'),
  ('CN[C@H](CC(C)C)C(=O)N[C@H]1C(=O)N[C@@H](CC(N)=O)C(=O)N[C@H]2C(=O)N[C@H]3C(=O)N[C@H](C(=O)N[C@H](C(=O)O)c4cc(O)cc(O)c4-c4cc3ccc4O)[C@H](O)c3ccc(c(Cl)c3)Oc3cc2cc(c3O[C@@H]2O[C@H](CO)[C@@H](O)[C@H](O)[C@H]2O[C@H]2C[C@](C)(N)[C@H](O)[C@H](C)O2)Oc2ccc(cc2Cl)[C@H]1O [Vancomycin hydrochloride] (20 µM)', 'inactive'),
  ('COCCCC/C(=N\OCCN)c1ccc(C(F)(F)F)cc1 [Fluvoxamine maleate] (20 µM)', 'inactive'),
  ('COC(=O)Nc1nc2cc(C(=O)c3ccc(F)cc3)ccc2[nH]1 [Flubendazol] (20 µM)', 'inactive'),
  ('Cc1nnc(NS(=O)(=O)c2ccc(N)cc2)s1 [Sulfamethizole] (20 µM)', 'inactive'),
  ('CC(C(=O)O)c1ccc(N2CC=CC2)c(Cl)c1 (stereo not given) [Pirprofen] (20 µM)', 'inactive'),
  ('COc1nc(C)nc(Cl)c1NC1=NCCN1 [Moxonidine] (20 µM)', 'inactive');
